Entries and their log10 Ki values follow.
assayed-target: UniProt:P51677
Sequence (P51677 whole entry): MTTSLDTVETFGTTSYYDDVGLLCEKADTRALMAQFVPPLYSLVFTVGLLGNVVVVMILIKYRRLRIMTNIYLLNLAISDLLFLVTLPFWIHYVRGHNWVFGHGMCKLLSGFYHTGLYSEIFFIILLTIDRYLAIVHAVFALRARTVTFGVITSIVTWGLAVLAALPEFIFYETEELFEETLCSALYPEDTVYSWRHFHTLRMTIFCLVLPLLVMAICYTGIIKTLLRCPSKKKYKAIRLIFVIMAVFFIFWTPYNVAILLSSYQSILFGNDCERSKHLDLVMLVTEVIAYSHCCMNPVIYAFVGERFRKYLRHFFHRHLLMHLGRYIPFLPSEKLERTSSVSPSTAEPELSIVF
On a log10 scale: recorded Ki, unit nM.

[
  {
    "compound": "FC(F)(F)c1ccc(CCNCC(c2ccc(C(F)(F)F)cc2)N2CCN(C3CCCCC3)CC2)cc1 (stereo not given)",
    "log10 Ki": 2.89
  },
  {
    "compound": "FC(F)(F)c1ccc(CCNCC(c2ccccc2)N2CCN(C3CCCCC3)CC2)cc1 (stereo not given)",
    "log10 Ki": 3.12
  },
  {
    "compound": "COc1ccc(C(CNCCc2ccc(F)cc2)N2CCN(C)CC2)cc1 (stereo not given)",
    "log10 Ki": 4.07
  },
  {
    "compound": "COc1ccc(C(CNCCc2ccc(C)cc2)N2CCN(C3CCCCC3)CC2)cc1 (stereo not given)",
    "log10 Ki": 2.96
  }
]

Now consider a different compound.
input: Recorded log10 Ki of COc1ccc(C(CNC(=O)Nc2ccc(F)cc2)N2CCN(C3CCCCC3)CC2)cc1 (stereo not given) , please.
output: 3.01

###

Consider the following Ki values measured on UniProt P51677.
Record the result as a number with its unit.

[
  {
    "molecule": "Cc1ccc(CCNCC(c2ccccc2)N2CCN(C)CC2)cc1 (stereo not drawn)",
    "assayed-target": "UniProt P51677",
    "Ki": "11.6 µM"
  },
  {
    "molecule": "CC(C)(C)c1ccc(C(CNC(=O)Nc2ccc(C(F)(F)F)cc2)N2CCN(C3CCCCC3)CC2)cc1 (stereo not drawn)",
    "assayed-target": "UniProt P51677",
    "Ki": "0.972 µM"
  },
  {
    "molecule": "O=C(NCC(c1ccccc1)N1CCN(C2CCCCC2)CC1)Nc1ccc(C(F)(F)F)cc1 (stereo not drawn)",
    "assayed-target": "UniProt P51677",
    "Ki": "1.46 µM"
  },
  {
    "molecule": "CC(C)(C)c1ccc(C(CNCCc2ccc(C(F)(F)F)cc2)N2CCN(C3CCCCC3)CC2)cc1 (stereo not drawn)",
    "assayed-target": "UniProt P51677",
    "Ki": "0.231 µM"
  },
  {
    "molecule": "Cc1cc(C)cc(CCNCC(c2ccc(-c3ccccc3)cc2)N2CCN(C3CCCCC3)CC2)c1 (stereo not drawn)",
    "assayed-target": "UniProt P51677",
    "Ki": "0.517 µM"
  }
]

input: Recorded Ki of COc1ccc(C(CNCCc2ccc(C(C)(C)C)cc2)N2CCN(C3CCCCC3)CC2)cc1 (stereo not drawn) , please.
output: 0.629 µM

input: Recorded Ki of CC(C)(C)c1ccc(CCNCC(c2ccc(C(F)(F)F)cc2)N2CCN(C3CCCCC3)CC2)cc1 (stereo not drawn) , please.
output: 0.832 µM

input: Recorded Ki of O=C(NCC(c1ccccc1)N1CCN(C2CCCCC2)CC1)Nc1ccc(F)cc1 (stereo not drawn) , please.
output: 6.36 µM

###

assayed-target: C-C chemokine receptor type 3 (Homo sapiens)
Sequence (P51677 whole entry): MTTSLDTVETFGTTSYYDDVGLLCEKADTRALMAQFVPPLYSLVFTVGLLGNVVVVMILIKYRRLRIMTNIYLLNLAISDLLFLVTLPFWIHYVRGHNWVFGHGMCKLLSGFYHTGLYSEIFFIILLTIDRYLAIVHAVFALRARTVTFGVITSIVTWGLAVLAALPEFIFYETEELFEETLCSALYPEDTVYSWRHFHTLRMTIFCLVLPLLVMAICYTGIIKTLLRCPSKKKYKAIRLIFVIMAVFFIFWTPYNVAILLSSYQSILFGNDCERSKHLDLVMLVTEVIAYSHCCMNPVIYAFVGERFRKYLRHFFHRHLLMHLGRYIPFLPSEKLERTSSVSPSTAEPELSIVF
parameter-measured: log10 Ki (log10 of the value in nM)
On a log10 scale: recorded Ki, unit nM.

Here are 4 compounds together with their reported answers.
[
  {
    "compound": "O=C(Cc1cc(Cl)cc(Cl)c1)NCC(c1ccccc1)N1CCN(C2CCCCC2)CC1 (centres undefined)",
    "parameter-measured": "log10 Ki",
    "recorded-measurement": 4.80
  },
  {
    "compound": "O=C(NCC(c1ccc(C(F)(F)F)cc1)N1CCN(C2CCCCC2)CC1)Nc1ccc(C(F)(F)F)cc1 (centres undefined)",
    "parameter-measured": "log10 Ki",
    "recorded-measurement": 3.12
  },
  {
    "compound": "COc1ccc(C(CNC(=O)Nc2ccc(C)cc2)N2CCN(C3CCCCC3)CC2)cc1 (centres undefined)",
    "parameter-measured": "log10 Ki",
    "recorded-measurement": 3.35
  },
  {
    "compound": "O=C(NCC(c1ccccc1)N1CCN(C2CCCCC2)CC1)Nc1cc(Cl)cc(Cl)c1 (centres undefined)",
    "parameter-measured": "log10 Ki",
    "recorded-measurement": 3.10
  }
]

input: Recorded log10 Ki of COc1ccc(C(CNC(=O)Nc2ccc(C(F)(F)F)cc2)N2CCN(C3CCCCC3)CC2)cc1 (centres undefined) , please.
output: 3.18

input: Recorded log10 Ki of COc1ccc(C(CNC(=O)Cc2ccccc2)N2CCN(c3ccccc3)CC2)cc1 (centres undefined) , please.
output: 4.60

input: Recorded log10 Ki of COc1ccccc1CCNCC(c1ccc(C(C)(C)C)cc1)N1CCN(C2CCCCC2)CC1 (centres undefined) , please.
output: 2.33

input: Recorded log10 Ki of COc1ccc(C(CNCCc2ccc(C)cc2)N2CCN(c3ccccc3)CC2)cc1 (centres undefined) , please.
output: 2.78

input: Recorded log10 Ki of CN1CCN(C(CNC(=O)Nc2ccc(F)cc2)c2ccc(N(C)C)cc2)CC1 (centres undefined) , please.
output: 3.89

###

assayed-target: C-C chemokine receptor type 3 (Homo sapiens)
Criterion: Ki strictly under 1000 nM. Met: Fulfilled. Not met: Not fulfilled.

[
  {
    "molecule": "O=C(NCC(c1ccc(C(F)(F)F)cc1)N1CCN(C2CCCCC2)CC1)Nc1ccccc1 (centres undefined)",
    "group-label": "Fulfilled"
  }
]

input: Input Fc1ccc(CCNCC(c2ccc(C(F)(F)F)cc2)N2CCN(c3ccccc3)CC2)cc1 (centres undefined) ; condition: Ki strictly below 1000 nM. Does it hold?
output: Not fulfilled

input: Input CC(C)(C)c1ccc(NC(=O)NCC(c2ccc(C(C)(C)C)cc2)N2CCN(C3CCCCC3)CC2)cc1 (centres undefined) ; condition: Ki strictly below 1000 nM. Does it hold?
output: Not fulfilled

input: Input CC(C)(C)c1ccc(CCNCC(c2ccc(C(C)(C)C)cc2)N2CCN(C3CCCCC3)CC2)cc1 (centres undefined) ; condition: Ki strictly below 1000 nM. Does it hold?
output: Fulfilled

input: Input CC(C)(C)c1ccc(C(CNC(=O)Nc2ccccc2)N2CCN(C3CCCCC3)CC2)cc1 (centres undefined) ; condition: Ki strictly below 1000 nM. Does it hold?
output: Not fulfilled

input: Input CC(C)(C)c1ccc(C(CNC(=O)Cc2ccc(C(F)(F)F)cc2)N2CCN(C3CCCCC3)CC2)cc1 (centres undefined) ; condition: Ki strictly below 1000 nM. Does it hold?
output: Not fulfilled

###

assayed-target: C-C chemokine receptor type 3 (Homo sapiens, UniProt P51677)
Sequence (P51677 whole entry): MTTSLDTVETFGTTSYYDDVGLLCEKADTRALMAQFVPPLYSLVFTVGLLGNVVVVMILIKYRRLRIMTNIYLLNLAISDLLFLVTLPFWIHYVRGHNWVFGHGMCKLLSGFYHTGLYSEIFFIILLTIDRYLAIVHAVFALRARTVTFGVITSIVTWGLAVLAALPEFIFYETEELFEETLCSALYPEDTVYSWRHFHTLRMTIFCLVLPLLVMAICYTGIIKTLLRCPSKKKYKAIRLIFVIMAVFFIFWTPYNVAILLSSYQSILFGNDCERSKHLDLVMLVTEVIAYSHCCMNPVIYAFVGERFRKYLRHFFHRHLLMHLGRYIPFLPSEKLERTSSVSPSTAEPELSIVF
parameter-measured: pKi
// field semantics: pKi = negative decimal log of concentration (mol/L)

Here are 4 compounds together with their reported answers.
[
  {
    "compound": "CN(C)c1ccc(CCNCC(c2ccc(C(F)(F)F)cc2)N2CCN(C3CCCCC3)CC2)cc1 (centres undefined)",
    "pKi": 5.97
  },
  {
    "compound": "COc1ccccc1CC(=O)NCC(c1ccccc1OC)N1CCN(c2ccccc2)CC1 (centres undefined)",
    "pKi": 5.22
  },
  {
    "compound": "COc1ccc(C(CNC(=O)Nc2ccc(C(C)(C)C)cc2)N2CCN(C3CCCCC3)CC2)cc1 (centres undefined)",
    "pKi": 6.04
  },
  {
    "compound": "O=C(NCC(c1ccccc1)N1CCN(c2ccccc2)CC1)Nc1ccc(F)cc1 (centres undefined)",
    "pKi": 5.26
  }
]

input: Recorded pKi of COc1ccc(C(CNCCc2cc(Cl)cc(Cl)c2)N2CCN(C3CCCCC3)CC2)cc1 (centres undefined) , please.
output: 7.21

input: Recorded pKi of COc1ccc(NC(=O)NCC(c2ccccc2)N2CCN(C3CCCCC3)CC2)cc1 (centres undefined) , please.
output: 5.01

input: Recorded pKi of Cc1ccc(CCNCC(c2ccc(C(F)(F)F)cc2)N2CCN(C3CCCCC3)CC2)cc1 (centres undefined) , please.
output: 6.26

input: Recorded pKi of COc1ccccc1CCNCC(c1ccc(C(F)(F)F)cc1)N1CCN(C2CCCCC2)CC1 (centres undefined) , please.
output: 6.93

input: Recorded pKi of Cc1ccc(NC(=O)NCC(c2ccc(C(F)(F)F)cc2)N2CCN(C3CCCCC3)CC2)cc1 (centres undefined) , please.
output: 5.97

input: Recorded pKi of CN(C)c1ccc(NC(=O)NCC(c2ccc(C(C)(C)C)cc2)N2CCN(C3CCCCC3)CC2)cc1 (centres undefined) , please.
output: 5.76
